Cited source: patent US20040110802A1

system: SAUR 9218; assay: MIC Test Method, standard agar dilution; assay type: cell-based; settings: agar dilution, Mueller Hinton agar, incubated overnight at 35° C.; lowest concentration that inhibits visible growth; read-out: SAUR 9218 MIC
PROPERTY NAME: MIC (mg/L)

>  <STRUCTURE NOTATION>
Cn1c(C(=O)Nc2ccc(C#N)cc2C(=O)O)cc2ccc(NC(=O)c3ccc(OC(F)(F)F)cc3)cc21

>  <RECORDED MEASUREMENT>
2

$$$$

A = CC1=C(C(=O)Nc2ccc(C#N)cc2C(=O)O)Cc2ccccc21
B = O=C(Nc1ccc(Br)cc1C(=O)O)c1cc(-c2ccccc2)on1
Ask: Response body: label of entry with the larger MIC; valid values A , B . Let me know the label of the one you choose.
Reply: A
(A: 4 mg/L, B: 0.25 mg/L)

1 = CCSc1cncc(C(=O)Nc2ccc(C#N)cc2C(=O)O)c1
2 = N#Cc1ccc(NC(=O)c2ccc3c(c2)S(=O)(=O)N(c2ccc(Cl)cc2)CC3)c(C(=O)O)c1
3 = N#Cc1ccc(NC(=O)c2cc3cccc(S(=O)(=O)c4ccccc4)c3[nH]2)c(C(=O)O)c1
Ask: Hey, quick one: sort these by MIC, largest value first please. Reply with the item labels sorted in the order that was asked for.
Reply: 1, 2, 3
(1: 1 mg/L, 2: 0.25 mg/L, 3: 0.125 mg/L)

---

Tested on: SAUR 9218
Experiment: MIC Test Method, standard agar dilution
Format: cell-based
Conditions: agar dilution, Mueller Hinton agar, incubated overnight at 35° C.; lowest concentration that inhibits visible growth; read-out: SAUR 9218 MIC
Experimental: The in vitro MiCs of test compounds were determined by a standard agar dilution method. A stock drug solution of each analog was prepared in the preferred solvent, usually DMSO:H2O (1:3). Serial 2-fold dilutions of each sample are made using 1.0 ml aliquots of sterile distil]ed water. […] Following incubation the Minimum Inhibitory Concentration (MIC μg/ml), the lowest concentration of drug that inhibits visible growth of the organism, was read and recorded.
PROPERTY NAME: MIC (µg/mL)

Worked cases, answers included:
>  <MOLECULE>
N#Cc1ccc(NC(=O)c2noc3cc(NS(=O)(=O)c4ccc(F)cc4)ccc23)c(C(=O)O)c1

>  <RECORDED MEASUREMENT>
0.5

$$$$
>  <MOLECULE>
COCCn1c(C(=O)Nc2ccc(C#N)cc2C(=O)O)cc2ccccc21

>  <RECORDED MEASUREMENT>
0.5

$$$$
>  <MOLECULE>
Cn1c(C(=O)Nc2ccc(C#N)cc2C(=O)O)cc2cccc(O)c21

>  <RECORDED MEASUREMENT>
1

$$$$
>  <MOLECULE>
COCCOCCCSc1ccc(C(=O)Nc2ccc(Cl)cc2C(=O)O)cn1

>  <RECORDED MEASUREMENT>
4

$$$$
>  <MOLECULE>
Cc1sc(C(=O)Nc2ccc(Br)cc2C(=O)O)cc1S(=O)(=O)Nc1ccc(F)c(Cl)c1

>  <RECORDED MEASUREMENT>
8

$$$$

P = N#Cc1ccc(NC(=O)c2cc(-c3ccccc3OCC3COc4ccccc4O3)on2)c(C(=O)O)c1 (stereo not shown)
Q = Cn1c(C(=O)Nc2ccc(C#N)cc2C(=O)O)cc2cccc(NC(=O)NCC3CCCO3)c21 (stereo not shown)
Ask: Lowest MIC? choose P or Q Let me know the label of the one you choose.
Reply: P
(P: 0.25 µg/mL, Q: 1 µg/mL)

a = N#Cc1ccc(NC(=O)c2cc3cccc4c3n2CCC4=O)c(C(=O)O)c1
b = N#Cc1ccc(NC(=O)c2noc3ccc(NS(=O)(=O)Cc4ccccc4)cc23)c(C(=O)O)c1
Ask: Response body: label of entry with the larger MIC; valid values a , b . Let me know the label of the one you choose.
Reply: a

A = Cc1sc(C(=O)Nc2ccc(C#N)cc2C(=O)O)cc1S(=O)(=O)N1CCCC2CCCCC21 (stereo not shown)
B = Cn1c(C(=O)Nc2ccc(C#N)cc2C(=O)O)cc2cccc(OCC3CCCCO3)c21 (stereo not shown)
Ask: Response body: label of entry with the larger MIC; valid values A , B . Let me know the label of the one you choose.
Reply: A

1 = Cc1cc(NS(=O)(=O)c2ccc(-c3cc(C(=O)Nc4ccc(Br)cc4C(=O)O)no3)cc2)no1
2 = CNS(=O)(=O)c1ccc2onc(C(=O)Nc3ccc(Br)cc3C(=O)O)c2c1
Ask: Lowest MIC? choose 1 or 2 Let me know the label of the one you choose.
Reply: 2
(2: 0.125 µg/mL, 1: 32 µg/mL)

---

test system: SAUR 9218; test: MIC Test Method, standard agar dilution; format: cell-based; conditions: agar dilution, Mueller Hinton agar, incubated overnight at 35° C.; lowest concentration that inhibits visible growth; read-out: SAUR 9218 MIC
PROPERTY NAME: MIC (µg/mL)

1 = N#Cc1ccc(NC(=O)c2ncc(-c3ccccc3)o2)c(C(=O)O)c1
2 = N#Cc1ccc(NC(=O)c2cc3cccc(NC(=O)Cc4cccc5ccccc45)c3[nH]2)c(C(=O)O)c1
Ask: Lowest MIC? choose 1 or 2 Let me know the label of the one you choose.
Reply: 2

I = O=C(O)c1cc(Cl)ccc1NC(=O)c1cc2ccccc2n1CC1CCCCC1
II = CC(=O)Nc1ccc2cc(C(=O)Nc3ccc(C#N)cc3C(=O)O)n(C)c2c1
Ask: Response body: label of entry with the larger MIC; valid values I , II . Let me know the label of the one you choose.
Reply: II

1 = CCC(C(=O)Nc1cccc2cc(C(=O)Nc3ccc(C#N)cc3C(=O)O)[nH]c12)c1ccccc1 (stereo not drawn)
2 = Cc1ccccc1-c1cc(C(=O)Nc2ccc(C#N)cc2C(=O)O)no1
3 = Cn1c(C(=O)Nc2ccc(C#N)cc2C(=O)O)cc2ccc(N(S(=O)(=O)c3cccs3)S(=O)(=O)c3cccs3)cc21
Ask: Hey, quick one: sort these by MIC, largest value first please. Reply with the item labels sorted in the order that was asked for.
Reply: 1, 2, 3

---

Measured MIC by item
System: SAUR 9218
Assay: MIC Test Method, standard agar dilution
Assay type: cell-based
Conditions: agar dilution, Mueller Hinton agar, incubated overnight at 35° C.; lowest concentration that inhibits visible growth; read-out: SAUR 9218 MIC
Description: The in vitro MiCs of test compounds were determined by a standard agar dilution method. A stock drug solution of each analog was prepared in the preferred solvent, usually DMSO:H2O (1:3). Serial 2-fold dilutions of each sample are made using 1.0 ml aliquots of sterile distil]ed water. […] Following incubation the Minimum Inhibitory Concentration (MIC μg/ml), the lowest concentration of drug that inhibits visible growth of the organism, was read and recorded.

Worked cases, answers included:
>  <STRUCTURE NOTATION>
Cc1c(S(=O)(=O)NCCCn2ccnc2)csc1C(=O)Nc1ccc(Br)cc1C(=O)O

>  <RECORDED MEASUREMENT>
> 128 µg/mL

$$$$
>  <STRUCTURE NOTATION>
O=C(Nc1ccc(Br)cc1C(=O)O)c1ccc[nH]1

>  <RECORDED MEASUREMENT>
> 128 µg/mL

$$$$

Ask: Which MIC value is on record for `N#Cc1ccc(NC(=O)c2cncc(-c3ccccn3)c2)c(C(=O)O)c1` ?
Reply: > 128 µg/mL

---

tested on: SAUR 9218; test: MIC Test Method, standard agar dilution; assay type: cell-based; conditions: agar dilution, Mueller Hinton agar, incubated overnight at 35° C.; lowest concentration that inhibits visible growth; read-out: SAUR 9218 MIC
PROPERTY NAME: MIC (µg/mL)

>  <COMPOUND>
O=C(Nc1ccc(Cl)cc1C(=O)O)c1ncc(-c2ccccc2)o1

>  <MEASURED TARGET>
SAUR 9218

>  <UNIT SYMBOL>
µg/mL

>  <MIC>
1

$$$$
>  <COMPOUND>
O=C(Nc1ccc(I)cc1C(=O)O)c1cnc(SCc2ccccc2)cn1

>  <MEASURED TARGET>
SAUR 9218

>  <UNIT SYMBOL>
µg/mL

>  <MIC>
1

$$$$
>  <COMPOUND>
CC(C)N(c1ccc2onc(C(=O)Nc3ccc(C#N)cc3C(=O)O)c2c1)S(C)(=O)=O

>  <MEASURED TARGET>
SAUR 9218

>  <UNIT SYMBOL>
µg/mL

>  <MIC>
0.125

$$$$
>  <COMPOUND>
Cn1cnc(S(=O)(=O)Nc2cccc3cc(C(=O)Nc4ccc(C#N)cc4C(=O)O)n(C)c23)c1

>  <MEASURED TARGET>
SAUR 9218

>  <UNIT SYMBOL>
µg/mL

>  <MIC>
0.5

$$$$

P = N#Cc1ccc(NC(=O)c2cc3cccc(NC(=O)CCc4ccccc4)c3[nH]2)c(C(=O)O)c1
Q = N#Cc1ccc(NC(=O)c2cc3cccc(NC(=O)COCc4ccccc4)c3[nH]2)c(C(=O)O)c1
R = O=C(Nc1ccc(Br)cc1C(=O)O)c1ccc2ccccc2n1
S = N#Cc1ccc(NC(=O)c2cncc(-c3ccccc3)c2)c(C(=O)O)c1
Ask: Ascending sort, MIC. Reply with the item labels sorted in the order that was asked for.
Reply: P, Q, R, S
